Where do these numbers come from? They come from PubChem BioAssay.

- experimentDescription: binders of probe aHhip on microarray, primary screen, stem cell growth factor project, biochemical, small-molecule microarray, fluorescence 635/667 (AID 1087);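 also: score merges spot fluorescence at 667nm with spot signal to noise ratio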
- assayConditions: higher = more signal
# key: entry, value: composite z-score
Note: the reply should be a number with no unit written.

| smilesNotation | composite z-score |
| --- | --- |
| C[C@@H]1CC[C@@H](C(=O)O)N[C@H]1c1ccc(-c2ccco2)cc1 | -0.0173 |
| C#CCCCON=C1C[C@@H](O)[C@@H](O)[C@@H]2[C@@H]3C(=O)N(C4CCCCC4)C(=O)[C@@H]3CC[C@H]12 | -0.0994 |
| CC(C)C(=O)N[C@@H]1CCCN1C(=O)C=Cc1ccccc1 | -0.0994 |

// next entry
# input Item `CO[C@H]1COC(=O)[C@H](C)NC(=O)CC=C[C@@H](C)[C@H](OC)COC(=O)CC=C[C@@H]1C` has what recorded composite z-score?
# output 0.201

###

- experimentalSystem: Fibroblast growth factor 2 (Homo sapiens) (UniProt P09038)
- Sequence (P09038 whole entry, looked up): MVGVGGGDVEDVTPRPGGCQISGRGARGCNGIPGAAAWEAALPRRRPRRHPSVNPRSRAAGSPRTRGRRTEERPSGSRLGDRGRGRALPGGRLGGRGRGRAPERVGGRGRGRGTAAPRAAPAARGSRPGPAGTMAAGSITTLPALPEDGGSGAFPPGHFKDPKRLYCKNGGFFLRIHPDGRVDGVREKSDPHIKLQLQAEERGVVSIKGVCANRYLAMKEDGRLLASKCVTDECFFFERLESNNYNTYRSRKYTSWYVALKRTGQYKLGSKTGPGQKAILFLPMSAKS
- experimentDescription: FGF2 binders on small-molecule microarrays, primary screen, biochemical, small-molecule microarray, 635/667 nm fluorescence (AID 1133)
- assayConditions: small-molecule microarray binding, FGF2, fluorescence 635/667; higher = more signal
Measured composite z-score by item
Number only, please.

| molecule | experimentalSystem | composite z-score |
| --- | --- | --- |
| CO[C@H]1COC(=O)[C@H](C)NC(=O)CC=C[C@@H](C)[C@H](OC)COC(=O)CC=C[C@@H]1C | Fibroblast growth factor 2 (Homo sapiens) (UniProt P09038) | 1.71 |

# input Please give the measured composite z-score for this molecule: COC(=O)[C@H](C)NC(=O)CCC1CC(OC(=O)NCCc2ccc(F)cc2)CC2(CCCC(COC(=O)NCCCN3CCCC3=O)O2)O1 (stereo partly drawn)
# output 1.3

# input Entry `CCCNC(=O)OC[C@H]1O[C@H](CCON=C(C)CCN2CCc3nc(-c4ccccc4)c(-c4ccccc4)cc3C2)C=C[C@@H]1Oc1ccc(OC)cc1` has what composite z-score?
# output 0.279

###

Catalogue of molecules with associated composite z-score
- experimentalSystem: Epidermal growth factor receptor (Homo sapiens) (UniProt P00533)
- Sequence (P00533 whole entry, looked up): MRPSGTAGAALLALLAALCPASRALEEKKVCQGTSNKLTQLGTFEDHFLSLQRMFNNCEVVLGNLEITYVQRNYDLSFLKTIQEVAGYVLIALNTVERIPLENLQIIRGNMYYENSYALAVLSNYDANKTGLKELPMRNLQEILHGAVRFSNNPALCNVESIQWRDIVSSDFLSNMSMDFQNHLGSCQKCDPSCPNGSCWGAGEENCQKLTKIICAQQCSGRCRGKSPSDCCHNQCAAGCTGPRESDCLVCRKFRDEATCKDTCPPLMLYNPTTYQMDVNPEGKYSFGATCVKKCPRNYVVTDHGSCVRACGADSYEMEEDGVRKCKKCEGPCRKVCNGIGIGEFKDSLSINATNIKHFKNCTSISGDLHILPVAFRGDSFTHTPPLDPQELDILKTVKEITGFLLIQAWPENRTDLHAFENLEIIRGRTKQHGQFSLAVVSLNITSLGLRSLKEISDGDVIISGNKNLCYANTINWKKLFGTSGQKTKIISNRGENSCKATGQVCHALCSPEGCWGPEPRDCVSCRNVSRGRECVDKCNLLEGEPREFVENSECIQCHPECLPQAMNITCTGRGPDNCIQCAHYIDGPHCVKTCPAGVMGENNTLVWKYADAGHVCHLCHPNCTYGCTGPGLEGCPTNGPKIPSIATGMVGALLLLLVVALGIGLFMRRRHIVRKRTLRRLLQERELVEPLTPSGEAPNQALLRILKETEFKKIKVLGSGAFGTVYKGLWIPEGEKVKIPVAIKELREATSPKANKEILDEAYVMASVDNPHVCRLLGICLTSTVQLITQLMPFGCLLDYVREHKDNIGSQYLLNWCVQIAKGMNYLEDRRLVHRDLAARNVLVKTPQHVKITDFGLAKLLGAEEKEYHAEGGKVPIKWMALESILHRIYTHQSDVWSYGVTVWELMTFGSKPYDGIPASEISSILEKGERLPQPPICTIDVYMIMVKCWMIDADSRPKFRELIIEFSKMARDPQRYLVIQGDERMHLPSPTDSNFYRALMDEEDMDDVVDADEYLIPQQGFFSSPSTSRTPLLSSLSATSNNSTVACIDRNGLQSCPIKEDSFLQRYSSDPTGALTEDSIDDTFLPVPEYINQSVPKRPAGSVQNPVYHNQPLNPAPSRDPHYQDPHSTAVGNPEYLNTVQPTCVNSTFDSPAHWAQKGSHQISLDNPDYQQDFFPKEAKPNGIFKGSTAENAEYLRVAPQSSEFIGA
- experimentDescription: EGFR binders on small-molecule microarrays, primary screen, biochemical, small-molecule microarray, 635 nm fluorescence (AID 1104);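 also: score merges 667 nm emission intensity with spot signal to noise over triplicate slides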
- assayConditions: EGFR binding, higher = more signal

| molecule | composite z-score |
| --- | --- |
| CC(C)CON=C1C[C@@H](O)[C@@H](O)[C@@H]2[C@@H]3C(=O)N(c4cccc(Oc5ccccc5)c4)C(=O)[C@@H]3CC[C@H]12 | 0.338 |
| C[C@@H](c1ccccc1)N1C(=O)[C@H]2[C@H]3[C@H](O)[C@H](O)CC(=O)[C@@H]3CC[C@H]2C1=O | 0.43 |
| COc1ccc(COC(=O)NN=C2C[C@@H](O)[C@@H](O)[C@@H]3[C@@H]4C(=O)N(C(C)(C)C)C(=O)[C@@H]4CC[C@H]23)cc1 | -0.0313 |
| CO[C@@H]1C=CCC(=O)N2CCC[C@H]2C(=O)OC[C@H](C)C(=O)OC[C@H]1C | 0.612 |
| C[C@@H]1CC[C@@H](C(=O)O)N[C@H]1c1ccc(-c2ccco2)cc1 | 0.946 |
| C=C(C)C(=O)OC[C@@H]1CN2[C@@H](CC[C@@H](C)[C@@H]2c2ccc(Br)cc2)C(=O)O1 | 0.263 |

# input Given the molecule CCOC(=O)[C@H](Cc1ccccc1)NC(=O)CCC1CC(OC(=O)NCc2cccc3ccccc23)CC2(CCCC(COC(=O)NCCCN3CCCC3=O)O2)O1 (some centres not stated) , what is its reported composite z-score?
# output 0.405

###

Catalogue of molecules with associated composite z-score
- experimentalSystem: Torsin-1A (Homo sapiens)
- experimentDescription: small-molecule binders of mutant TOR1A in lysate, primary screen, cell lysate, small-molecule microarray, COS7 lysate, 635/667 nm fluorescence (AID 1150);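 also: score pools 667 nm emission and signal to noise measuring lysate protein binding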
- assayConditions: COS7 hTOR1A mutant lysate, 635 nm fluorescence, higher = more signal
Would you mind answering with just the numeric figure?

| molecule | composite z-score |
| --- | --- |
| CO[C@H]1COC(=O)[C@H](C)NC(=O)CC=C[C@@H](C)[C@H](OC)COC(=O)CC=C[C@@H]1C | 1.81 |
| Cc1cc2c(nc1C)CCCN2CC(C)ON=C[C@@H](C)[C@H](OCc1ccccc1)C(C)C (stereo not given in full) | 0.22 |
| CC(C)=NO[C@@H](C)c1cc(-c2c(C)cc(C)cc2C)no1 | -0.281 |

# input Look up composite z-score for this molecule: `CCOC(=O)CCN1C(=O)[C@H]2[C@H]3[C@H](O)[C@H](O)CC(=NNC(=O)OCC)[C@@H]3CC[C@H]2C1=O`
# output 0.608

# input Quick one: composite z-score for `CC(=O)OC[C@H]1O[C@H](C#CC(C)(C)C)C=C[C@@H]1OC(C)=O` ?
# output -0.392

###

- experimentalSystem: Epidermal growth factor receptor (Homo sapiens) (UniProt P00533)
- experimentDescription: EGFR binders on small-molecule microarrays, primary screen, biochemical, small-molecule microarray, 635 nm fluorescence (AID 1104);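 also: score merges 667 nm emission intensity with spot signal to noise over triplicate slides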
- assayConditions: EGFR binding, higher = more signal
Reported values of composite z-score for individual entries
Would you mind answering with just the numeric figure?

Observe how each entry below is paired with its result.
| compound | experimentalSystem | composite z-score |
| --- | --- | --- |
| CO[C@H]1COC(=O)CC=C[C@@H](C)COC(=O)[C@@H](OCc2ccccc2)C=C[C@@H]1C | Epidermal growth factor receptor (Homo sapiens) (UniProt P00533) | 0.831 |
| C#CCCCON=C1C[C@@H](O)[C@@H](O)[C@@H]2[C@@H]3C(=O)N(C4CCCCC4)C(=O)[C@@H]3CC[C@H]12 | Epidermal growth factor receptor (Homo sapiens) (UniProt P00533) | 0.217 |
| CCOC(=O)CCN1C(=O)[C@H]2[C@H]3[C@H](O)[C@H](O)CC(=NNC(=O)OCC)[C@@H]3CC[C@H]2C1=O | Epidermal growth factor receptor (Homo sapiens) (UniProt P00533) | 0.209 |
| CC(C)C(=O)N[C@@H]1CCCN1C(=O)C=Cc1ccccc1 | Epidermal growth factor receptor (Homo sapiens) (UniProt P00533) | 0.432 |
| CCCNC(=O)OC[C@H]1O[C@H](CCON=C(C)CCN2CCc3nc(-c4ccccc4)c(-c4ccccc4)cc3C2)C=C[C@@H]1Oc1ccc(OC)cc1 | Epidermal growth factor receptor (Homo sapiens) (UniProt P00533) | 0.0142 |
| O=C(NN=C1C[C@@H](O)[C@@H](O)[C@@H]2[C@@H]3C(=O)N(Cc4ccc5c(c4)OCO5)C(=O)[C@@H]3CC[C@H]12)OCc1ccccc1 | Epidermal growth factor receptor (Homo sapiens) (UniProt P00533) | -0.0036 |

# input Which value of composite z-score has been reported for `CC(C)=NO[C@@H](C)c1cc(-c2c(C)cc(C)cc2C)no1` in the records?
# output -0.0855

# input So what's the measured composite z-score for this one? CCOC(=O)[C@H](CC(C)C)NC(=O)CCC1CC(OC(=O)NCc2cccc3ccccc23)CC2(CCCC(COC(=O)NCc3ccccc3)O2)O1 (stereo partly specified)
# output -0.152

# input Reported composite z-score, compound `CC(C)=NOC[C@@H](O)COCc1ccco1` : ____
# output -0.298

# input Entry under review: Cc1cc2c(nc1C)CCCN2CC(C)ON=C[C@@H](C)[C@H](OCc1ccccc1)C(C)C (stereo partly specified) . Reported composite z-score?
# output 0.0333

# input composite z-score lookup needed for `O=C1[C@H]2[C@H]3[C@H](O)[C@H](O)CC(=NOCc4ccccc4)[C@H]3CC[C@H]2C(=O)N1Cc1ccccc1` , thanks.
# output 0.486

# input Value lookup for composite z-score; key = `CCCNC(=O)OC[C@H]1O[C@H](CCON=C(C)CCC(=O)OC[C@H]2O[C@H](C#Cc3ccccc3)C=C[C@@H]2Oc2ccc(C)cc2)C=C[C@@H]1Oc1ccc(OC)cc1`
# output -0.501

# input Item under review: `CC(C)=CCCC(C)=CCON=C1C[C@@H](O)[C@@H](O)[C@@H]2[C@@H]3C(=O)N([C@@H](C)c4ccccc4)C(=O)[C@@H]3CC[C@H]12` . Reported composite z-score?
# output 0.525

# input Entry `CC(=O)OC[C@H]1O[C@H](C#CC(C)(C)C)C=C[C@@H]1OC(C)=O` : reported composite z-score = ?
# output 0.274

# input Recorded composite z-score of `CCOC(=O)NN=C1C[C@@H](O)[C@@H](O)[C@@H]2[C@@H]3C(=O)N(Cc4ccccc4)C(=O)[C@@H]3CC[C@@H]12` , please.
# output 0.542

# input Can you look up the measured composite z-score of `CO[C@H]1COC(=O)[C@H](C)NC(=O)CC=C[C@@H](C)[C@H](OC)COC(=O)CC=C[C@@H]1C` for me?
# output 1.49
